Tested on: A498
ASSAY METHOD TEXT: NCI tumour cell line growth inhibition, 48 h
Active and inactive are the calls of the source. Rule as the data show it: active = GI50 up to about 1.1 µM and inactive = higher.
Hi! Could you answer with just one of these? 1 (active), -1 (inactive)

Q. What was the test verdict on `C[C@]12C[C@H](O)[C@H]3[C@@H](CCC4=CC(=O)CC[C@@]43C)[C@@H]1CC[C@@H]2c1csc(-c2ccccc2)n1` ?
A. -1

Q. Per the records of this test, what outcome belongs to C[C@]12C=CC(=O)C=C1CC[C@@H]1[C@@H]2CC[C@]2(C)OC(=O)CC[C@@H]12 [TESTOLACTONE] ?
A. -1

Q. Lab log entry: `N=C(N)N/N=C(\c1ccc(F)cc1)c1ccc(C(F)(F)F)cc1` — outcome as called in the assay?
A. 1

Q. # lookup: test call for `CN(C)Cc1cc(/C=C/C(=O)c2ccc(Br)cc2)cc(CN(C)C)c1O`
A. -1

Q. What is the recorded call for this molecule in the test? `O=C(Nc1ccc2ccccc2c1)Nn1cnnc1`
A. -1
